# System: Staphylococcus aureus
# Protocol: Bactericidal activity against methicillin-resistant Staphylococcus aureus ATCC 33591 by CLSI based method
# Assay type: functional
Documented MBC across a set of compounds

{"columns": ["Entry smiles", "MBC"],
 "data": [
  ["COc1ccc2[nH]c3c(CC[C@H](C)[C@H]4CC[C@H]5[C@@H]6[C@H](O)C[C@@H]7C[C@H](O)CC[C@]7(C)[C@H]6C[C@H](O)[C@]45C)[n+](Cc4ccc(F)cc4)ccc3c2c1.[Br-]", "2 µg/mL"],
  ["COc1ccc2[nH]c3c(CC[C@H](C)[C@H]4CC[C@H]5[C@@H]6[C@H](O)C[C@@H]7C[C@H](O)CC[C@]7(C)[C@H]6C[C@H](O)[C@]45C)[n+](Cc4ccccc4F)ccc3c2c1.[Br-]", "4 µg/mL"],
  ["COc1cccc(C[n+]2ccc3c([nH]c4ccc(OC)cc43)c2CC[C@H](C)[C@H]2CC[C@H]3[C@@H]4[C@H](O)C[C@@H]5C[C@H](O)CC[C@]5(C)[C@H]4C[C@H](O)[C@]23C)c1.[Br-]", "8 µg/mL"],
  ["CC[n+]1ccc2c([nH]c3ccc(OC)cc32)c1CC[C@H](C)[C@H]1CC[C@H]2[C@@H]3[C@H](O)C[C@@H]4C[C@H](O)CC[C@]4(C)[C@H]3CC[C@]12C.[Br-]", "4 µg/mL"]
]}

====

# Protocol: Hemolytic activity in rabbit RBC
# Assay type: toxicity, cell-based, Oryctolagus cuniculus, Erythrocyte
# Condition info: rabbit red blood cells

{"columns": ["Entry smiles", "HC50"],
 "data": [
  ["COc1ccc2[nH]c3c(CC[C@H](C)[C@H]4CC[C@H]5[C@@H]6[C@H](O)C[C@@H]7C[C@H](O)CC[C@]7(C)[C@H]6C[C@H](O)[C@]45C)[n+](Cc4ccc(Cl)cc4)ccc3c2c1.[Br-]", "> 256 µg/mL"]
]}

====

# Tested on: Staphylococcus aureus
# Protocol: Bactericidal activity against methicillin-resistant Staphylococcus aureus ATCC 33591 by CLSI based method
# Format: functional

{"columns": ["Entry smiles", "MBC, µg/mL"],
 "data": [
  ["CCC[n+]1ccc2c([nH]c3ccc(OC)cc32)c1CC[C@H](C)[C@H]1CC[C@H]2[C@@H]3[C@H](O)C[C@@H]4C[C@H](O)CC[C@]4(C)[C@H]3CC[C@]12C.[Br-]", 4],
  ["COc1ccc2[nH]c3c(CC[C@H](C)[C@H]4CC[C@H]5[C@@H]6[C@H](O)C[C@@H]7C[C@H](O)CC[C@]7(C)[C@H]6C[C@H](O)[C@]45C)[n+](Cc4ccc(Br)cc4)ccc3c2c1.[Br-]", 4],
  ["COc1ccc2[nH]c3c(CC[C@H](C)[C@H]4CC[C@H]5[C@@H]6[C@H](O)C[C@@H]7C[C@H](O)CC[C@]7(C)[C@H]6C[C@H](O)[C@]45C)[n+](Cc4ccc(OC(F)(F)F)cc4)ccc3c2c1.[Br-]", 4],
  ["CCCC[n+]1ccc2c([nH]c3ccc(OC)cc32)c1CC[C@H](C)[C@H]1CC[C@H]2[C@@H]3[C@H](O)C[C@@H]4C[C@H](O)CC[C@]4(C)[C@H]3CC[C@]12C.[Br-]", 16]
]}

====

Documented MIC across a set of compounds
# Test system: Staphylococcus aureus
# Protocol: Antibacterial activity against methicillin-resistant Staphylococcus aureus ATCC 33591
# Assay type: functional
Experimental readout: MIC (µg/mL)

{"columns": ["Entry smiles", "Test result"],
 "data": [
  ["COc1ccc2[nH]c3c(CC[C@H](C)[C@H]4CC[C@H]5[C@@H]6[C@H](O)C[C@@H]7C[C@H](O)CC[C@]7(C)[C@H]6CC[C@]45C)[n+](Cc4ccc(OC(F)(F)F)cc4)ccc3c2c1.[Br-]", 16],
  ["COc1ccc2[nH]c3c(CC[C@H](C)[C@H]4CC[C@H]5[C@@H]6[C@H](O)C[C@@H]7C[C@H](O)CC[C@]7(C)[C@H]6C[C@H](O)[C@]45C)[n+](Cc4cccc(F)c4)ccc3c2c1.[Br-]", 2],
  ["CC[n+]1ccc2c([nH]c3ccc(OC)cc32)c1CC[C@H](C)[C@H]1CC[C@H]2[C@@H]3CC[C@@H]4C[C@H](O)CC[C@]4(C)[C@H]3CC[C@]12C.[Br-]", 32],
  ["COc1ccc2[nH]c3c(CC[C@H](C)[C@H]4CC[C@H]5[C@@H]6[C@H](O)C[C@@H]7C[C@H](O)CC[C@]7(C)[C@H]6C[C@H](O)[C@]45C)[n+](Cc4ccc(Br)cc4)ccc3c2c1.[Br-]", 2],
  ["COc1ccc2[nH]c3c(CC[C@H](C)[C@H]4CC[C@H]5[C@@H]6[C@H](O)C[C@@H]7C[C@H](O)CC[C@]7(C)[C@H]6CC[C@]45C)[n+](Cc4cccc(F)c4)ccc3c2c1.[Br-]", 8],
  ["COc1ccc2[nH]c3c(CC[C@H](C)[C@H]4CC[C@H]5[C@@H]6[C@H](O)C[C@@H]7C[C@H](O)CC[C@]7(C)[C@H]6C[C@H](O)[C@]45C)[n+](Cc4ccc(F)cc4)ccc3c2c1.[Br-]", 2],
  ["CCC[n+]1ccc2c([nH]c3ccc(OC)cc32)c1CC[C@H](C)[C@H]1CC[C@H]2[C@@H]3[C@H](O)C[C@@H]4C[C@H](O)CC[C@]4(C)[C@H]3C[C@H](O)[C@]12C.[Br-]", 16],
  ["COc1ccc2[nH]c3c(CC[C@H](C)[C@H]4CC[C@H]5[C@@H]6[C@H](O)C[C@@H]7C[C@H](O)CC[C@]7(C)[C@H]6CC[C@]45C)[n+](Cc4cccc(Cl)c4)ccc3c2c1.[Br-]", 32],
  ["COc1ccc2[nH]c3c(CC[C@H](C)[C@H]4CC[C@H]5[C@@H]6[C@H](O)C[C@@H]7C[C@H](O)CC[C@]7(C)[C@H]6CC[C@]45C)[n+](Cc4ccccc4F)ccc3c2c1.[Br-]", 8]
]}

====

# Test system: Staphylococcus aureus
# Protocol: Antibacterial activity against methicillin-resistant Staphylococcus aureus ATCC 33591
# Format: functional
Experimental readout: MIC (µg/mL)

{"columns": ["Entry smiles", "Experimental readout", "Test result"],
 "data": [
  ["COc1ccc2[nH]c3c(CC[C@H](C)[C@H]4CC[C@H]5[C@@H]6[C@H](O)C[C@@H]7C[C@H](O)CC[C@]7(C)[C@H]6C[C@H](O)[C@]45C)[n+](Cc4ccccc4C)ccc3c2c1.[Br-]", "MIC", 4],
  ["COc1ccc2[nH]c3c(CC[C@H](C)[C@H]4CC[C@H]5[C@@H]6CC[C@@H]7C[C@H](O)CC[C@]7(C)[C@H]6CC[C@]45C)[n+](Cc4ccc(OC(F)(F)F)cc4)ccc3c2c1.[Br-]", "MIC", 32]
]}

====

# System: Staphylococcus aureus
# Protocol: Antibacterial activity against methicillin-resistant Staphylococcus aureus ATCC 43300
# Assay type: functional
Output satisfied for records whose MIC is lower than 2 mg/L, not satisfied for records at or above 2 mg/L.

{"columns": ["Entry smiles", "Target of assay", "Discrete label"],
 "data": [
  ["CCCC[n+]1ccc2c([nH]c3ccc(OC)cc32)c1CC[C@H](C)[C@H]1CC[C@H]2[C@@H]3[C@H](O)C[C@@H]4C[C@H](O)CC[C@]4(C)[C@H]3C[C@H](O)[C@]12C.[Br-]", "Staphylococcus aureus", "not satisfied"],
  ["COc1ccc2[nH]c3c(CC[C@H](C)[C@H]4CC[C@H]5[C@@H]6[C@H](O)C[C@@H]7C[C@H](O)CC[C@]7(C)[C@H]6CC[C@]45C)[n+](Cc4ccccc4C)ccc3c2c1.[Br-]", "Staphylococcus aureus", "not satisfied"],
  ["COc1ccc2[nH]c3c(CC[C@H](C)[C@H]4CC[C@H]5[C@@H]6[C@H](O)C[C@@H]7C[C@H](O)CC[C@]7(C)[C@H]6C[C@H](O)[C@]45C)[n+](Cc4ccc(Cl)cc4)ccc3c2c1.[Br-]", "Staphylococcus aureus", "satisfied"],
  ["COc1ccc2[nH]c3c(CC[C@H](C)[C@H]4CC[C@H]5[C@@H]6[C@H](O)C[C@@H]7C[C@H](O)CC[C@]7(C)[C@H]6C[C@H](O)[C@]45C)[n+](Cc4ccc(F)cc4)ccc3c2c1.[Br-]", "Staphylococcus aureus", "satisfied"],
  ["COc1cccc(C[n+]2ccc3c([nH]c4ccc(OC)cc43)c2CC[C@H](C)[C@H]2CC[C@H]3[C@@H]4[C@H](O)C[C@@H]5C[C@H](O)CC[C@]5(C)[C@H]4C[C@H](O)[C@]23C)c1.[Br-]", "Staphylococcus aureus", "satisfied"],
  ["COc1ccc2[nH]c3c(CC[C@H](C)[C@H]4CC[C@H]5[C@@H]6[C@H](O)C[C@@H]7C[C@H](O)CC[C@]7(C)[C@H]6C[C@H](O)[C@]45C)[n+](Cc4ccccc4C)ccc3c2c1.[Br-]", "Staphylococcus aureus", "satisfied"],
  ["COc1ccc2[nH]c3c(CC[C@H](C)[C@H]4CC[C@H]5[C@@H]6[C@H](O)C[C@@H]7C[C@H](O)CC[C@]7(C)[C@H]6CC[C@]45C)[n+](Cc4cccc(Cl)c4)ccc3c2c1.[Br-]", "Staphylococcus aureus", "not satisfied"],
  ["CCCCC[n+]1ccc2c([nH]c3ccc(OC)cc32)c1CC[C@H](C)[C@H]1CC[C@H]2[C@@H]3[C@H](O)C[C@@H]4C[C@H](O)CC[C@]4(C)[C@H]3CC[C@]12C.[Br-]", "Staphylococcus aureus", "not satisfied"],
  ["COc1ccc(OC)c(C[n+]2ccc3c([nH]c4ccc(OC)cc43)c2CC[C@H](C)[C@H]2CC[C@H]3[C@@H]4[C@H](O)C[C@@H]5C[C@H](O)CC[C@]5(C)[C@H]4CC[C@]23C)c1.[Br-]", "Staphylococcus aureus", "not satisfied"],
  ["COc1ccc2[nH]c3c(CC[C@H](C)[C@H]4CC[C@H]5[C@@H]6[C@H](O)C[C@@H]7C[C@H](O)CC[C@]7(C)[C@H]6C[C@H](O)[C@]45C)[n+](Cc4ccc(C)cc4)ccc3c2c1.[Br-]", "Staphylococcus aureus", "satisfied"],
  ["COc1ccc2[nH]c3c(CC[C@H](C)[C@H]4CC[C@H]5[C@@H]6[C@H](O)C[C@@H]7C[C@H](O)CC[C@]7(C)[C@H]6CC[C@]45C)[n+](Cc4ccccc4F)ccc3c2c1.[Br-]", "Staphylococcus aureus", "not satisfied"],
  ["COc1ccc2[nH]c3c(CC[C@H](C)[C@H]4CC[C@H]5[C@@H]6[C@H](O)C[C@@H]7C[C@H](O)CC[C@]7(C)[C@H]6CC[C@]45C)[n+](Cc4ccc(F)cc4)ccc3c2c1.[Br-]", "Staphylococcus aureus", "not satisfied"],
  ["COc1ccc2[nH]c3c(CC[C@H](C)[C@H]4CC[C@H]5[C@@H]6[C@H](O)C[C@@H]7C[C@H](O)CC[C@]7(C)[C@H]6C[C@H](O)[C@]45C)[n+](Cc4ccccc4F)ccc3c2c1.[Br-]", "Staphylococcus aureus", "satisfied"],
  ["COc1ccc2[nH]c3c(CC[C@H](C)[C@H]4CC[C@H]5[C@@H]6[C@H](O)C[C@@H]7C[C@H](O)CC[C@]7(C)[C@H]6CC[C@]45C)[n+](Cc4ccc(C)cc4)ccc3c2c1.[Br-]", "Staphylococcus aureus", "not satisfied"]
]}
